Molecular target: PI3K γ (p110γ) (Homo sapiens)
Construct: purchased Upstate / Millipore Corporation
Sequence (P48736 whole entry): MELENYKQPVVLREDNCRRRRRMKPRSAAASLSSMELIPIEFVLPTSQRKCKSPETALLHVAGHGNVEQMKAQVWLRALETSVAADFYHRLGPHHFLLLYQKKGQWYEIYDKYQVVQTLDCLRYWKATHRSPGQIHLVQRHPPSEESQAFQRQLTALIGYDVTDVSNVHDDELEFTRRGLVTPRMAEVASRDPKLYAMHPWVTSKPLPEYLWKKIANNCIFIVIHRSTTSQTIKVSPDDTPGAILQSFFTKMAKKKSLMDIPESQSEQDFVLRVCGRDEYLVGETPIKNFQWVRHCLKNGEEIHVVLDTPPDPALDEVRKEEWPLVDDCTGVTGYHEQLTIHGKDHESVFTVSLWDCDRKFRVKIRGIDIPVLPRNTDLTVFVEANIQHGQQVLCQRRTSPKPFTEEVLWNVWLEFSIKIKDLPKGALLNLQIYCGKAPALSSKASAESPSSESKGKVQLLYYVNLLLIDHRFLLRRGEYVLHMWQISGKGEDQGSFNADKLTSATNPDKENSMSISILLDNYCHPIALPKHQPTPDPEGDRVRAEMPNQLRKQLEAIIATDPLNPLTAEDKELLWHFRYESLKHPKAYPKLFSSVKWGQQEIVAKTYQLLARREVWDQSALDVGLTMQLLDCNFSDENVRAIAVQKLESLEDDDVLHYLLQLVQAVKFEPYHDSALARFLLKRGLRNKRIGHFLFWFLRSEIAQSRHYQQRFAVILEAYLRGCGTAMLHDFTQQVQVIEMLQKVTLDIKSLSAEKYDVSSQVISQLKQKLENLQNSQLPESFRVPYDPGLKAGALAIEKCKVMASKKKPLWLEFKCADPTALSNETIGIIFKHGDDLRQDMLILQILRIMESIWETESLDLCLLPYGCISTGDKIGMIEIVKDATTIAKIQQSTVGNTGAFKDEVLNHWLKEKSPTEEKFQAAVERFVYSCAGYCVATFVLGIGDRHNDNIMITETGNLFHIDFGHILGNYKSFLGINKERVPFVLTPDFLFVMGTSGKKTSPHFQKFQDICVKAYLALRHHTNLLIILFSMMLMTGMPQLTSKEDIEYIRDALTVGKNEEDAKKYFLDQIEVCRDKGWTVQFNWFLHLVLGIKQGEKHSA
Experiment: PI 3-Kinase (human) HTRF assay, PI3K γ
Assay type: biochemical
Details: read-out: PI3K γ IC50
reported metric: IC50

Use the examples below as a reference point.
Looking for the measured IC50 of Nc1nc2cc(-c3ccc4ncc(N5CCN(CCO)CC5)nc4c3)ccc2o1 [Compound 100] , can you help?
< 1 µM

Likewise for O=C(c1cnc2ccc(-c3cnc(Cl)c(NS(=O)(=O)c4ccc(F)cc4)c3)cn12)N1CCOCC1 [Compound 457] ?
< 0.1 µM

Likewise for Cc1nccn1-c1cnc2ccc(-c3ccc4oc(N)nc4c3)cc2n1 [Compound 174] ?
< 0.1 µM

Likewise for CN1CCC(N(C)C(=O)c2cnc3ccc(-c4ccc5oc(N)nc5c4)cn23)CC1 [Compound 165] ?
> 10 µM

Continue with the next compound.
Looking for the measured IC50 of Nc1nc2cc(-c3ccc4ncc(N5CCN(CC6CC6)CC5)nc4c3)ccc2o1 [Compound 153] , can you help?
< 1 µM
